# tgt: BCR-ABL protein (Homo sapiens, UniProt P00519+P11274)
# Construct: examined for their activity to degrade BCR-ABL in K562 cells for 6 h; BCR (fusion partner, P11274, N-terminal part); endogenous in cells; host or cells: K562
# Sequence (P11274+P00519 fused): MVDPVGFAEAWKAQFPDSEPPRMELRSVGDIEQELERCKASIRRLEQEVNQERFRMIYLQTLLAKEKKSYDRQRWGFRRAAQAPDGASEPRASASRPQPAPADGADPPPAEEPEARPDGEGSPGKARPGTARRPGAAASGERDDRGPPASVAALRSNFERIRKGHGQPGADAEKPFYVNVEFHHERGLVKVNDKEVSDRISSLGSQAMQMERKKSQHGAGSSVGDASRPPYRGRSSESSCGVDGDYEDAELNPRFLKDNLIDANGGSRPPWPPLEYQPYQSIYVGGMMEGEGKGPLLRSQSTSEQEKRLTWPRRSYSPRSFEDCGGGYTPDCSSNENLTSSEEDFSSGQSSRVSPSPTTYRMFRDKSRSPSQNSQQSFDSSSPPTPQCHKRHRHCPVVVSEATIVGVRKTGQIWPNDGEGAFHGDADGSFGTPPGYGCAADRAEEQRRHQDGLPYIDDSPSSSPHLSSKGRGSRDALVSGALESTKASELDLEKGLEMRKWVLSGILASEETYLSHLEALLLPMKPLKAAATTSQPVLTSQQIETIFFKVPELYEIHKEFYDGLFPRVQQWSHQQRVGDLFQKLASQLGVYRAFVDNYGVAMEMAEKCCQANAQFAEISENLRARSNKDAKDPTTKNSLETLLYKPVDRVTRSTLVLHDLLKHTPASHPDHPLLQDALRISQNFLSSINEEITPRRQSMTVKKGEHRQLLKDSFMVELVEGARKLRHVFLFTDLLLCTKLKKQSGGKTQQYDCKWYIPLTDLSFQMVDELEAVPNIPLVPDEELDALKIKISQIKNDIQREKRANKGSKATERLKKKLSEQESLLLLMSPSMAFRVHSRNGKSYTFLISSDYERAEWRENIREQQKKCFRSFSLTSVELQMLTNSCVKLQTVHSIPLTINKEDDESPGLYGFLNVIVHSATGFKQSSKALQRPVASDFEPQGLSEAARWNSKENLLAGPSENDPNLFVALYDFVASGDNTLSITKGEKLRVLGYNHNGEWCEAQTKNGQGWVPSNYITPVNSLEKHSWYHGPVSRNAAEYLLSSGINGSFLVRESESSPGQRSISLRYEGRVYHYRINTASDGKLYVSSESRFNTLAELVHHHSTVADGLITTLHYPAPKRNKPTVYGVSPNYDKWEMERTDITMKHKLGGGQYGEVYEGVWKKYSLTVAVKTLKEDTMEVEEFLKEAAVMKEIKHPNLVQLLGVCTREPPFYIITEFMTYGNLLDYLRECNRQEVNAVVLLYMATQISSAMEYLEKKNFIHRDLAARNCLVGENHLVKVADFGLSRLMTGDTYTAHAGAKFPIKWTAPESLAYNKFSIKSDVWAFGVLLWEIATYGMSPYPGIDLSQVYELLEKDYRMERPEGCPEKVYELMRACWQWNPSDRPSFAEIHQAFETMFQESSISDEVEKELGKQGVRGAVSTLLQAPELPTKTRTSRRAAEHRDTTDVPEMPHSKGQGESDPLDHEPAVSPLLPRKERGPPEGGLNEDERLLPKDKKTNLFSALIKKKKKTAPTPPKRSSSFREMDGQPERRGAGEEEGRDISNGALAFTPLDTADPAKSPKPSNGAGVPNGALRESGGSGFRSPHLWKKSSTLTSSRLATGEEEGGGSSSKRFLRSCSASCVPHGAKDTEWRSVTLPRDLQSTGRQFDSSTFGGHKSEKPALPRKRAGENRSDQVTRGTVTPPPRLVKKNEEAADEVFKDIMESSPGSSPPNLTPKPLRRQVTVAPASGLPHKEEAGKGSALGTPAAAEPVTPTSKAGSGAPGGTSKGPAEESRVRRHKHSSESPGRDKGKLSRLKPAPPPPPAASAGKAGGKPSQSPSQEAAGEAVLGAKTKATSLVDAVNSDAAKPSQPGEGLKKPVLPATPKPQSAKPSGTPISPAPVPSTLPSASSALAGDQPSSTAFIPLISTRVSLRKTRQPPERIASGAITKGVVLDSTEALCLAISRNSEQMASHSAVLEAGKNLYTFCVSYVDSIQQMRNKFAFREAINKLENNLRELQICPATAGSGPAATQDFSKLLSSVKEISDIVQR
# assayProcedure: Protein knockdown by western blot in K562 cells
# Type: cell-based
# assayContext: 6 h, 1-300 nM
measuredEndpoint: knockdown activity against the BCR-ABL protein

*Q* Recall the reported knockdown activity against the BCR-ABL protein of `CCN1CCN(Cc2ccc(NC(=O)c3cccc(-c4ccc5nc(NC(=O)COCCOCCOCCOc6cccc(C(=O)c7csc([C@@H]8CCCN8C(=O)[C@@H](NC(=O)[C@H](C)NC)C8CCCCC8)n7)c6)sc5n4)c3)cc2C(F)(F)F)CC1` on BCR-ABL protein (Homo sapiens, UniProt P00519+P11274) and write it down.
*A* weak
